Assembled from different publications: IC50 for Cytochrome P450 2C9 (Homo sapiens).
RECORDED METRIC: IC50

{"columns": ["MOLECULE", "RECORDED METRIC", "RESULT"],
 "data": [
  ["Cc1ncccc1-n1c(=O)c2nn(C)cc2c2ccc(C(F)(F)F)nc21 (single isomer, unassigned)", "IC50", "> 10 µM"],
  ["C[C@@H]1Cc2c([nH]c3ccc(F)cc23)[C@@H](c2c(F)cc(N[C@H]3CCN(CCCF)C3)cc2F)N1CC(F)(F)F", "IC50", "20 µM"],
  ["C[C@@H]1Cc2c([nH]c3cc(F)ccc23)[C@@H](c2c(F)cc(N[C@H]3CCN(CCCF)C3)cc2F)N1CC(F)(F)F", "IC50", "19.5 µM"],
  ["COc1cc(N2CC(C)(C)N[C@H]3CCCC[C@@H]32)ccc1OC(F)(F)CO", "IC50", "> 100 µM"],
  ["CC1(C)CN(c2cc(F)c(OCCO)c(F)c2)[C@H]2CCCC[C@@H]2N1", "IC50", "> 100 µM"],
  ["CC1(C)CN(c2ccc(OCCO)c(Cl)c2)[C@H]2CCCC[C@@H]2N1", "IC50", "> 100 µM"],
  ["Cn1cc2c(n1)c(=O)n(-c1cccc3[nH]ncc13)c1cc(Cl)ccc21", "IC50", "> 10 µM"],
  ["Cc1cc(N2CC(C)(C)N[C@@H]3CCCC[C@H]32)ccc1OC(F)(F)CO", "IC50", "> 100 µM"],
  ["CN1[C@H]2CCCC[C@@H]2N(c2ccc(OC(F)(F)CO)cc2)CC1(C)C", "IC50", "> 100 µM"],
  ["CC1(C)CN(c2ccc(OCCO)c(Cl)c2)[C@@H]2CCCC[C@H]2N1", "IC50", "> 100 µM"],
  ["Cc1cc(N2CC(C)(C)N[C@H]3CCCC[C@@H]32)ccc1OC(F)(F)CO", "IC50", "> 100 µM"],
  ["CC1(C)CN(c2ccc(OC(F)(F)CO)cc2)[C@@H]2CCCC[C@H]2N1", "IC50", "> 100 µM"],
  ["C[C@@H]1CN(c2cc(F)c(OCCO)c(Cl)c2)[C@H]2CCCC[C@@H]2N1", "IC50", "> 100 µM"],
  ["CC(C)(O)c1ccc(-c2cnc(C(C)(C)O)c(N)c2)cc1N", "IC50", "> 50 µM"],
  ["C#Cc1ccc2c3c([nH]c2c1)[C@@H](c1c(F)cc(N[C@H]2CCN(CCCF)C2)cc1F)N(CC(F)(F)F)[C@H](C)C3", "IC50", "> 42.8 µM"]
]}
